# assay: Plasma pharmacokinetics after IV or PO administration
# Type: in vivo, male C57BL/6J mice
# assay context: male, C57BL/6J, mouse, plasma, po, 10 mg/kg, PO 10 mg kg^−1, plasma, n = 3
property label: Cmax (ng/mL)
Reply with just the number (in ng/mL).

-- ask Give its Cmax value. Item: N#Cc1cccc(-n2nnc(-c3cccnc3)n2)c1 [SR9883]
-- reply 1020

###

# assay: Plasma pharmacokinetics after IV or PO administration
# Assay type: in vivo, male C57BL/6J mice
# assay context: male, C57BL/6J, mouse; IV 1 mg kg^−1, plasma, n = 3
property label: Tmax (min)
Reply with just the number (in min).

-- ask Give its Tmax value. Item: N#Cc1cccc(-n2nnc(-c3cccnc3)n2)c1 [SR9883]
-- reply 4.8

###

# assay: Plasma pharmacokinetics after IV or PO administration
# Format: in vivo, male C57BL/6J mice
# assay context: male, C57BL/6J, mouse, plasma; IV 1 mg kg^−1, n = 3; read-out: Cl_obs
property label: clearance (mL/min/kg)
Reply with just the number (in mL/min/kg).

-- ask Give its clearance value. Item: N#Cc1cccc(-n2nnc(-c3cccnc3)n2)c1 [SR9883]
-- reply 45.7

###

# assay: Plasma pharmacokinetics after IV or PO administration
# Assay type: in vivo, male C57BL/6J mice
# assay context: male, C57BL/6J, mouse, plasma, other: intravenous and oral, after IV and oral administration; read-out: half-life
property label: half-life

-- ask Give its half-life value. Item: "N#Cc1cccc(-n2nnc(-c3cccnc3)n2)c1"
-- reply 50 to 60 min

###

# assay: Plasma pharmacokinetics after IV or PO administration
# Format: in vivo, male C57BL/6J mice
# assay context: male, C57BL/6J, mouse; PO 10 mg kg^−1, plasma, n = 3
property label: AUC(0-t)

-- ask Give its AUC(0-t) value. Item: N#Cc1cccc(-n2nnc(-c3cccnc3)n2)c1 [SR9883]
-- reply 21.1 µM·h

###

# assay: Plasma pharmacokinetics after IV or PO administration
# Type: in vivo, male C57BL/6J mice
# assay context: male, C57BL/6J, mouse; IV 1 mg kg^−1, plasma, n = 3
property label: AUC(0-t) (µM·h)
Reply with just the number (in µM·h).

-- ask Give its AUC(0-t) value. Item: "N#Cc1cccc(-n2nnc(-c3cccnc3)n2)c1"
-- reply 1.77

###

# assay: Plasma pharmacokinetics after IV or PO administration
# Format: in vivo, male C57BL/6J mice
# assay context: male, C57BL/6J, mouse, plasma, iv, 1 mg/kg, IV 1 mg kg^−1, plasma, n = 3; mean (S.E.M.); read-out: T1/2 (converted)
property label: half-life (min)
Reply with just the number (in min).

-- ask Give its half-life value. Item: "N#Cc1cccc(-n2nnc(-c3cccnc3)n2)c1"
-- reply 52.8

###

# assay: Plasma pharmacokinetics after IV or PO administration
# Type: in vivo, male C57BL/6J mice
# assay context: male, C57BL/6J, mouse, plasma, po, 10 mg/kg, PO 10 mg kg^−1, plasma, n = 3; mean (S.E.M.); read-out: T1/2 (converted)
property label: half-life (h)
Reply with just the number (in h).

-- ask Give its half-life value. Item: "N#Cc1cccc(-n2nnc(-c3cccnc3)n2)c1"
-- reply 3.73

###

# assay: Plasma pharmacokinetics after IV or PO administration
# Assay type: in vivo, male C57BL/6J mice
# assay context: male, C57BL/6J, mouse, plasma, po, 10 mg/kg, PO 10 mg kg^−1, as stated in text; read-out: T½
property label: half-life

-- ask Give its half-life value. Item: "N#Cc1cccc(-n2nnc(-c3cccnc3)n2)c1"
-- reply ~1.07 h
